# Test system: OVCAR-3 ovarian
# protocol summary: NCI tumour cell line growth inhibition, 48 h
Each entry below carries its recorded TGI.

# molecule, TGI
records = [
    ("CCCCCCCCCCCCNC1(C)CNCCCNCCNCCCNC1", "3.28 µM"),
    ("O=C(/C=C/c1ccccc1)CCC1C(=O)NC(=O)NC1=O", "> 100 µM"),
    ("CC(=O)Nc1ccc(/C=C/C(=O)c2sc(C(N)=S)nc2C)cc1", "> 100 µM"),
    ("COc1cc(C2S/C(=C/c3ccccc3)C(=O)N2c2ccc([N+](=O)[O-])cc2)cc(OC)c1OC (stereo unspecified)", "> 100 µM"),
    ("COc1cc2c3c(c4cc(OC)c(OC)cc4c2cc1OC)[C@H](O)[C@@H]1CCCN1C3", "1.18 µM"),
    ("COc1ccc(Nc2ccnc(NCCCNc3ccnc4cc(Cl)ccc34)n2)cc1", "3.24 µM"),
]

====

# Test system: COLO 205 colon
# protocol summary: NCI tumour cell line growth inhibition, 48 h
readout: TGI (nM)

# structure notation, operator symbol, number
measured = [
    ("Nc1c(Cl)c([N+](=O)[O-])cc2c1OCCCCO2", ">", 100000),
    ("COc1cc2c3c(n(C4CCNCC4)c(=O)c2cc1OC)-c1cc2c(cc1C3=O)OCO2", "=", 2330),
    ("COc1cc(/C=N/NC2=NCCCN2)ccc1O", ">", 100000),
    ("CC(C)N(c1cc2c(cc1F)c(=O)c(C(=O)O)cn2-c1ccc(N2CCN(C)CC2)cn1)C(C)C", ">", 100000),
    ("COc1ccc2c(c1)/C(=C\\c1cccc(/C=C3/C(=O)Nc4ccc(OC)cc43)n1)C(=O)N2", "=", 2040),
]

====

Each entry below carries its recorded GI50.
# Tested on: LOX IMVI melanoma
# protocol summary: NCI tumour cell line growth inhibition, 48 h

# compound, study target, GI50
records = [
    ("CO[C@H](C(=O)N[C@@H](CCCCNC(=O)OCc1ccccc1)C(=O)OC(C)(C)C)[C@@H]1Cc2cc3cc(OC4CC(OC5CC(O)C(O)C(C)O5)C(O)C(C)O4)c(C)c(O)c3c(O)c2C(=O)[C@H]1OC1CC(OC2CC(OC3CC(C)(O)C(O)C(C)O3)C(O)C(C)O2)C(O)C(C)O1 (stereo partly specified)", "LOX IMVI melanoma", "434 nM"),
    ("Cn1cnc2c(NCc3ccccc3)nc(NCCO)nc21", "LOX IMVI melanoma", "48400 nM"),
    ("O=C(Nc1ccc(Br)c(Cl)c1)c1cc(F)ccc1O", "LOX IMVI melanoma", "553 nM"),
    ("CN(C)CC1CCn2c(c(C3=C(c4cn(C)c5ccccc45)C(=O)NC3=O)c3ccccc32)C1 (stereo unspecified)", "LOX IMVI melanoma", "3860 nM"),
    ("CCCC(=O)NNc1[nH]c(-c2ccc(OC)cc2)cc1C(=O)OCC", "LOX IMVI melanoma", "16800 nM"),
    ("COc1cnc2c(c1)C(=O)c1c-2n(CCCN2CCN(C)CC2)c(=O)c2cc(Cl)ccc12", "LOX IMVI melanoma", "779 nM"),
]

====

# Test system: NCI-H226 lung
# protocol summary: NCI tumour cell line growth inhibition, 48 h
Each entry below carries its recorded GI50.
readout: GI50

# molecule, study target, readout, result
records = [
    ("NC(=O)Oc1cc(OC(N)=O)cc(N(CCCl)CCCl)c1", "NCI-H226 lung", "GI50", "14.9 µM"),
    ("CC[C@H](C)C(=O)O[C@H]1CCC=C2C=C[C@H](C)C(CCC3C[C@@H](O)CC(=O)O3)[C@H]21 (stereo partly specified)", "NCI-H226 lung", "GI50", "6.2 µM"),
    ("C/C(=C\\c1c[nH]c2ccccc12)[N+](=O)[O-]", "NCI-H226 lung", "GI50", "13.3 µM"),
    ("CO[C@H]1CC[C@@]2(C)C(=CC[C@H]3[C@@H]4C[C@H](O)C[C@@]4(C)CC[C@@H]32)C1", "NCI-H226 lung", "GI50", "13.8 µM"),
    ("c1ccc2cc(Cn3c(-c4ccc5ccccc5c4)[n+](Cc4ccc5ccccc5c4)c4ccccc43)ccc2c1", "NCI-H226 lung", "GI50", "0.481 µM"),
    ("COc1ccc2c(c1)/C(=C\\c1cccc(/C=C3/C(=O)Nc4ccc(OC)cc43)n1)C(=O)N2", "NCI-H226 lung", "GI50", "1.54 µM"),
    ("O=C(/C=C\\Sc1nccc(C(F)(F)F)n1)c1ccc(Br)cc1", "NCI-H226 lung", "GI50", "26.9 µM"),
    ("Cc1ccc(NC(=O)c2ccnc(N3CCCC3)c2)cc1-c1ccc(C(=O)NCC2CC2)cc1", "NCI-H226 lung", "GI50", "> 25 µM"),
    ("C=C[C@]1(C)C=C2C(=O)[C@@]3(O)OC(=O)[C@@]4(CCCC(C)(C)[C@H]34)[C@@]2(O)CC1", "NCI-H226 lung", "GI50", "5.14 µM"),
    ("COc1cc(C(=O)n2nc(N3CCN(C)CC3)c3cc(N)ccc32)cc(OC)c1OC", "NCI-H226 lung", "GI50", "5.61 µM"),
    ("COc1cc2c(cc1OC)[C@@]1(C)C(=O)c3cc4c(cc3[C@H]1N(C)C2=O)OCO4", "NCI-H226 lung", "GI50", "44.1 µM"),
    ("C#C[C@@]1(O)[C@@H](CO)O[C@@H](n2cc(F)c3c(N)ncnc32)[C@@H]1O", "NCI-H226 lung", "GI50", "0.521 µM"),
    ("CCN(CC)CCOc1cc2c(C(=O)OC)c(C)oc2cc1C(C)=O", "NCI-H226 lung", "GI50", "11.4 µM"),
    ("CO[C@H](C(=O)N[C@@H](CCCCNC(=O)OCc1ccccc1)C(=O)OC(C)(C)C)[C@@H]1Cc2cc3cc(OC4CC(OC5CC(O)C(O)C(C)O5)C(O)C(C)O4)c(C)c(O)c3c(O)c2C(=O)[C@H]1OC1CC(OC2CC(OC3CC(C)(O)C(O)C(C)O3)C(O)C(C)O2)C(O)C(C)O1 (stereo partly specified)", "NCI-H226 lung", "GI50", "0.673 µM"),
    ("CC/C(=C(\\CC)c1ccc(OCCN(CC)CC)cc1)c1ccc(OCCN(CC)CC)cc1", "NCI-H226 lung", "GI50", "3.87 µM"),
    ("Cc1cc(C)nc(SC2=C(Nc3cccc(Cl)c3)C(=O)N(Cc3ccccc3)C2=O)n1", "NCI-H226 lung", "GI50", "0.729 µM"),
]

====

# Tested on: BT-549 breast
# protocol summary: NCI tumour cell line growth inhibition, 48 h
readout: TGI

# compound, study target, result
data = [
    ("Cc1ccc(C(=O)NC2CCCCC2)cc1-c1ccc(C(=O)NCC2CC2)cc1", "BT-549 breast", "> 25 µM"),
    ("CC(Oc1ccc(Cl)cc1Cl)C(=O)NN1C(=O)CSC1c1ccc(Cl)cc1 (configuration not stated)", "BT-549 breast", "> 100 µM"),
    ("COc1ccc(Nc2ccnc(NCCCNc3ccnc4cc(Cl)ccc34)n2)cc1", "BT-549 breast", "3.94 µM"),
    ("CCn1c(SCC(=O)NNC(=S)Nc2ccc(F)cc2)nc2ccccc2c1=O", "BT-549 breast", "> 100 µM"),
    ("CCOC(=O)/C(=C\\NC(C)(C)C)c1nc2ccccc2o1", "BT-549 breast", "> 100 µM"),
    ("CCCCc1ccc(N2C(=O)c3cccnc3S2(=O)=O)cc1", "BT-549 breast", "> 100 µM"),
    ("CC(C)(CCCCC(C)(C)NCC1COc2ccccc2O1)NCC1COc2ccccc2O1 (configuration not stated)", "BT-549 breast", "> 10 µM"),
    ("CCn1c(=O)c2c3ccc(O)cc3oc2c2ccc(O)cc21", "BT-549 breast", "> 100 µM"),
    ("C/C(=C\\c1c[nH]c2ccccc12)[N+](=O)[O-]", "BT-549 breast", "24 µM"),
    ("COC(=O)/C=C(\\S/C(=C(/c1ccc(OC)cc1)n1cc(C(=O)OC)c(C(=O)OC)n1)c1ccc(OC)cc1)C(=O)OC", "BT-549 breast", "> 100 µM"),
    ("COc1ccc(-c2cc(-c3ccco3)c(C#N)c(=S)n2C2OC(CO)C(O)C(O)C2O)cc1 (configuration not stated)", "BT-549 breast", "> 100 µM"),
    ("COc1ccc2c(c1)/C(=C\\c1cccc(/C=C3/C(=O)Nc4ccc(OC)cc43)n1)C(=O)N2", "BT-549 breast", "6.39 µM"),
    ("CN1CCC/C1=C1\\C(=O)c2cccn2C1=O", "BT-549 breast", "> 100 µM"),
    ("COC(=O)N/N=C(\\C)C(CN1CCOCC1)C(c1ccccc1)c1cc2ccccc2oc1=O (configuration not stated)", "BT-549 breast", "> 100 µM"),
    ("Cc1cc2nc3c(C#N)c(-c4ccccc4)cc(Nc4ccc(F)cc4)n3c2cc1C", "BT-549 breast", "56.3 µM"),
    ("Nc1nncs1", "BT-549 breast", "> 5000 µM"),
    ("COc1c(O)cc2c(c1O)C1O[C@H](CO)C(O)[C@H](O)[C@H]1OC2=O (some centres not stated)", "BT-549 breast", "> 100 µM"),
    ("O=C1c2cccnc2C(=O)c2c1nc1ccccc1c2-c1cncc(-c2c3c(nc4ccccc24)C(=O)c2cccnc2C3=O)c1", "BT-549 breast", "1.52 µM"),
    ("COc1ccc(-n2cnc3c(NC(C)(C)C(=O)O)ncnc32)cc1", "BT-549 breast", "> 100 µM"),
    ("COc1cccc2c1c1nc3cc(C)c(C)cc3nc1n2CCN(C)C", "BT-549 breast", "10.2 µM"),
    ("N#CC(C#N)=C1CCCCc2ccc([N+](=O)[O-])cc21", "BT-549 breast", "> 100 µM"),
    ("COc1cc(-c2nc3ccccc3s2)ccc1OCc1nc2n(n1)S(=O)(=O)c1ccccc1N2C", "BT-549 breast", "> 100 µM"),
    ("O=C1CCSc2c(cnc3ccccc23)N1", "BT-549 breast", "> 100 µM"),
    ("Cc1ccc(NC(=O)c2ccnc(N3CCCC3)c2)cc1-c1ccc(C(=O)NCC2CC2)cc1", "BT-549 breast", "> 25 µM"),
    ("CSc1ccc(-c2cc(-c3nc4ccccc4[nH]3)nc3[nH]c(-c4nc5ccccc5[nH]4)cc(=O)c23)cc1", "BT-549 breast", "> 100 µM"),
    ("Nc1ccn([C@@H]2C=C(CO)[C@@H](O)[C@H]2O)c(=O)n1", "BT-549 breast", "113 µM"),
    ("C#C[C@]1(O)CC[C@H]2[C@@H]3CCC4=C/C(=N\\OCCN5CCCC5)CC[C@]4(C)[C@H]3CC[C@@]21C", "BT-549 breast", "43.6 µM"),
    ("Cc1ccnc2c1ccc1nc3ccccc3n12", "BT-549 breast", "> 100 µM"),
    ("COC1/C=C\\OC2(C)Oc3c(C)c(O)c4c(O)c(c(CN(C)C)c(O)c4c3C2=O)NC(=O)/C(C)=C\\C=C/C(C)C(O)C(C)C(O)C(C)C(OC(C)=O)C1C (configuration not stated)", "BT-549 breast", "> 100 µM"),
    ("Cc1cc(C)nc(SC2=C(Nc3cccc(Cl)c3)C(=O)N(Cc3ccccc3)C2=O)n1", "BT-549 breast", "> 170 µM"),
    ("CCOC(=O)c1c(NC(=O)c2ccc(OC)cc2)sc2c1CCCC2", "BT-549 breast", "> 100 µM"),
    ("CCN(CC)CCOc1cc2c(C(=O)OC)c(C)oc2cc1C(C)=O", "BT-549 breast", "22.8 µM"),
    ("C=C[C@]1(C)C=C2C(=O)[C@@]3(O)OC(=O)[C@@]4(CCCC(C)(C)[C@H]34)[C@@]2(O)CC1", "BT-549 breast", "2.48 µM"),
    ("COC(=O)/C(C#N)=C(\\Nc1ccccc1)N1CCCCC1", "BT-549 breast", "> 100 µM"),
    ("CC(=C(C(=O)O)C(=O)O)c1cc(-c2cccs2)cc(-c2ccc(Cl)cc2)c1O", "BT-549 breast", "34.4 µM"),
    ("O=C(NN1C(=O)c2ccccc2C1=O)c1ccccc1Nc1ccccc1C(=O)NN1C(=O)c2ccccc2C1=O", "BT-549 breast", "> 100 µM"),
    ("COc1cc2c3c(c4cc(OC)c(OC)cc4c2cc1OC)[C@H](O)[C@@H]1CCCN1C3", "BT-549 breast", "9.63 µM"),
]
